Where these numbers come from: paper PMC10489073

test: In vivo pharmacokinetics; conditions: male, rat, plasma, iv; SD rats, i.v. at 10 mg/kg, n = 3

- smiles.str: "CC(C)C[C@H](NC(=O)[C@@H](O)[C@H](N)Cc1ccccc1)B1OC(=O)C(CC(=O)O)(CC(=O)O)O1"
  half-life (h): 1.72

----------
assay: In vivo pharmacokinetics; conditions: male, SD, rat, plasma, iv, 10 mg/kg, SD rats, i.v. at 10 mg/kg, n = 3

- smiles.str: "CC(C)C[C@H](NC(=O)[C@@H](O)[C@H](N)Cc1ccccc1)B1OC(=O)C(CC(=O)O)(CC(=O)O)O1"
  AUC(0-inf), ng·h/mL: 5150

----------
assay: Acute toxicity experiment (single oral dose); type: in vivo; details: both sexes, Kunming, mouse, in vivo; single oral dose, healthy mice
reported.endpoint: LD50 at 7 days (µmol/kg)

- smiles.str: "CC(C)C[C@H](NC(=O)[C@@H](O)[C@H](N)Cc1ccccc1)B1OC(=O)C(CC(=O)O)(CC(=O)O)O1"
  data.value: 400

----------
Known pIC50 of a selection of molecules
test system: ARP-1; assay: Cell proliferation analysis (MTT); format: cell-based; conditions: 48 h, read-out: Anti-proliferative activity IC50, ARP-1
pIC50: −log10 of the molar value.

- molecule: "CC(C)C[C@H](NC(=O)[C@@H](O)[C@H](N)Cc1ccccc1)B1OC(=O)C(CC(=O)O)(CC(=O)O)O1 [BC-05]"
  qual: "="
  pIC50: 4.99
- molecule: "CC(C)C[C@H](NC(=O)[C@@H](O)[C@H](N)Cc1ccccc1)C(=O)O [Ubenimex]"
  qual: "<"
  pIC50: 3.70

----------
Molecular target: CD13 from Porcine Kidney (Sus scrofa, UniProt P15145)
Sequence (P15145 1-963): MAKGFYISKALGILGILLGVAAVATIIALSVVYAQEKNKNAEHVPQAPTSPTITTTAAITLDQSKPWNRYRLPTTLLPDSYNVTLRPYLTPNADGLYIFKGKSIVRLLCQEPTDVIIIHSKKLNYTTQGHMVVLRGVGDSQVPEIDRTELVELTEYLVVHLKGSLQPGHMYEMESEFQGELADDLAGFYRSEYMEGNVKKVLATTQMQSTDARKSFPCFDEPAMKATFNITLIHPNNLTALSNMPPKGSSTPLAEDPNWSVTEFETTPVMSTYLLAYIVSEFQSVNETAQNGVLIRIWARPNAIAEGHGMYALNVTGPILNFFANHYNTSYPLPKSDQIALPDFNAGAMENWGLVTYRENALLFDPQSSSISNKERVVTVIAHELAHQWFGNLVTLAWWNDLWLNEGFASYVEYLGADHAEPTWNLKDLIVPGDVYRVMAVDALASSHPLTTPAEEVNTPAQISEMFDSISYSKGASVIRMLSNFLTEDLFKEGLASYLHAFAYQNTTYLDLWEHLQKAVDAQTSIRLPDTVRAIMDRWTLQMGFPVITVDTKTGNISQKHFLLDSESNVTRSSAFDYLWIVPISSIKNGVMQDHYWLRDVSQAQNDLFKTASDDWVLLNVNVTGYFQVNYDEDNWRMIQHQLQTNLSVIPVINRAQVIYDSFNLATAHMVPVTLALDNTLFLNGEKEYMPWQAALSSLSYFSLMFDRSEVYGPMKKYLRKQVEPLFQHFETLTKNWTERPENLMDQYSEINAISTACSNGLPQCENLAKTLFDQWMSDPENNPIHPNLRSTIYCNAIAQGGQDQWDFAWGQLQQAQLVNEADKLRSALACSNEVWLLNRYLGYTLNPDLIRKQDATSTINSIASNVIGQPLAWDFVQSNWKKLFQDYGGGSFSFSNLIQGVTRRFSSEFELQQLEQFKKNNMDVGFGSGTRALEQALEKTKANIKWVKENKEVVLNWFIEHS

- smiles.str: "CC(C)C[C@H](NC(=O)[C@@H](O)[C@H](N)Cc1ccccc1)B1OC(=O)C(CC(=O)O)(CC(=O)O)O1"
  tested.on: "CD13 from Porcine Kidney (Sus scrofa, UniProt P15145)"
  IC50: "650 nM"

----------
assay: In vivo pharmacokinetics; settings: male, rat, plasma, iv; SD rats, i.v. at 10 mg/kg, n = 3
reported.endpoint: clearance (mL/min/kg)

- smiles.str: "CC(C)C[C@H](NC(=O)[C@@H](O)[C@H](N)Cc1ccccc1)B1OC(=O)C(CC(=O)O)(CC(=O)O)O1"
  unit.info: "mL/min/kg"
  data.value: 32.5

----------
assay: In vivo pharmacokinetics; conditions: male, rat, plasma, iv; SD rats, i.v. at 10 mg/kg, n = 3

- compound: "CC(C)C[C@H](NC(=O)[C@@H](O)[C@H](N)Cc1ccccc1)B1OC(=O)C(CC(=O)O)(CC(=O)O)O1 [BC-05]"
  Cmax [ng/mL]: 10500

----------
experiment: In vivo pharmacokinetics; conditions: male, rat, plasma; SD rats, oral at 10 mg/kg vs i.v. 10 mg/kg; read-out: F (oral bioavailability)
reported.endpoint: bioavailability

- smiles.str: "CC(C)C[C@H](NC(=O)[C@@H](O)[C@H](N)Cc1ccccc1)B1OC(=O)C(CC(=O)O)(CC(=O)O)O1"
  data.value: "24.9%"

----------
tested on: SP2; experiment: Cell proliferation analysis (MTT); assay type: cell-based; conditions: 48 h, read-out: Anti-proliferative activity IC50, SP2
Known IC50 of a selection of compounds

- compound: "CC(C)C[C@H](NC(=O)[C@@H](O)[C@H](N)Cc1ccccc1)C(=O)O [Ubenimex]"
  IC50: "> 200 µM"
- compound: "CC(C)C[C@H](NC(=O)[C@@H](O)[C@H](N)Cc1ccccc1)B1OC(=O)C(CC(=O)O)(CC(=O)O)O1 [BC-05]"
  IC50: "14.7 µM"

----------
assay: In vivo pharmacokinetics; settings: male, SD, rat, plasma, po, 10 mg/kg, SD rats, oral at 10 mg/kg, n = 3
reported.endpoint: AUC(0-inf) (ng·h/mL)

- molecule: "CC(C)C[C@H](NC(=O)[C@@H](O)[C@H](N)Cc1ccccc1)B1OC(=O)C(CC(=O)O)(CC(=O)O)O1 [BC-05]"
  reported.endpoint: "AUC(0-inf)"
  data.value: 1310

----------
tested on: Hela; test: Cell proliferation analysis (MTT); assay type: cell-based; settings: Homo sapiens, 48 h, read-out: Anti-proliferative activity IC50, Hela
pIC50: −log10 of the molar value.
reported.endpoint: pIC50

- smiles.str: "CC(C)C[C@H](NC(=O)[C@@H](O)[C@H](N)Cc1ccccc1)B1OC(=O)C(CC(=O)O)(CC(=O)O)O1"
  tested.on: "Hela"
  qual: "="
  data.value: 4.08
- smiles.str: "CC(C)C[C@H](NC(=O)[C@@H](O)[C@H](N)Cc1ccccc1)C(=O)O"
  tested.on: "Hela"
  qual: "<"
  data.value: 3.70
